Every entry's value here was drawn from PubChem BioAssay (NCI).

- Tested on: MCF7 breast
- Method Description: NCI-60 one-dose screen, 48 h (100 = growth as untreated, 0 = no growth, -100 = all killed)
- Conditions Used: 10 µM unless noted
Compounds without any hit were thinned out: in the full panel of roughly 83,000, 20% have a hit. The source made the active and inactive calls. How the source made its calls: active means growth percent below 10; inactive means the rest.
# maps each entry to its growth
Endpoint Name: growth

- Compound: "COc1cc(/C=C/c2cc(/C=C/c3ccc(O)c(OC)c3)n(C(=O)Nc3ccc(C)cc3C)n2)ccc1O"
  Val: "-3.78% (active)"
- Compound: "Cc1c(-c2cnc3ccc(Cl)cc3c2C(=O)O)nnn1-c1ccc(Cl)cc1"
  Val: "98.5% (inactive)"
- Compound: "CCOc1cc(\\C=N/N=C(N)/C(N)=N\\N=C/c2ccc(O)c(OCC)c2)ccc1O"
  Val: "91.5% (inactive)"
- Compound: "C=CN(C(=O)N1CCN(c2cc3c(cc2F)c(=O)c(C(=O)O)cn3C2CC2)CC1)c1nc(-c2ccc(C)cc2)cs1"
  Val: "7.94% (active)"
- Compound: "COc1cc(OCc2cccc(-c3ccccc3)c2C)cc(OC)c1CN1CCCCC1C(=O)NCCOCCOCCN (stereo not drawn)"
  Val: "51.3% (inactive)"
- Compound: "N#CC1=C(N)Oc2c(ccc3cccnc23)C1c1ccccc1 (stereo not drawn)"
  Val: "24.6% (inactive)"
- Compound: "CCOC(=O)CSc1nc2sc3c(c2c(=O)n1-c1ccccc1)CCCCC3"
  Val: "94.5% (inactive)"
- Compound: "Clc1ccc(C2=Nn3c(nnc3-c3cc(Cl)cc(Cl)c3Cl)SC2)cc1"
  Val: "7.6% (active)"

###

- Test system: SN12C renal
- Method Description: NCI-60 one-dose screen, 48 h (100 = growth as untreated, 0 = no growth, -100 = all killed)
- Conditions Used: 10 µM unless noted
The panel holds about 83,000 compounds, 20% with a hit somewhere; the sample as a whole holds those more often.
Entries and their growth
Endpoint Name: growth (%)

- Smiles Data: "CCCCCCCCNC(=O)[C@@H](N)CSCOC(C)=O"
  Experimental Target: "SN12C renal"
  Val: 91.7
- Smiles Data: "CCN(CC)c1ccc(/C=N/NC(=O)c2ccccc2Nc2ccnc(C(F)(F)F)c2)c(O)c1"
  Experimental Target: "SN12C renal"
  Val: 22.2
- Smiles Data: "O=c1ccc2nc(-c3ccccc3)nn(-c3ccccn3)c-2c1"
  Experimental Target: "SN12C renal"
  Val: 93.1
- Smiles Data: "O=C1CCc2c(sc3[nH]c(=S)n(-c4cc(C(F)(F)F)cc(C(F)(F)F)c4)c(=O)c23)C1"
  Experimental Target: "SN12C renal"
  Val: 8.54
- Smiles Data: "O=C(c1ccccc1)[C@@H](c1ccccc1)[C@]1(O)C(=O)Nc2ccccc21"
  Experimental Target: "SN12C renal"
  Val: 82.3
- Smiles Data: "CCOC(=O)c1c(Nc2nc3ccccc3s2)sc2c1CCC(=O)C2"
  Experimental Target: "SN12C renal"
  Val: 36.8
- Smiles Data: "CC(=O)OCC(=O)O[C@@H]1C[C@]2(C(C)C)O[C@@]1(C)[C@@H]1CC[C@@H](C)[C@H]1[C@@H]2OC(=O)/C=C/c1ccccc1"
  Experimental Target: "SN12C renal"
  Val: 20.3
- Smiles Data: "Cc1csc(Nc2nc(-c3cccc(Cl)c3)nc(C(Cl)(Cl)Cl)n2)n1"
  Experimental Target: "SN12C renal"
  Val: 84.1
- Smiles Data: "O=C(Nc1ccc(Oc2cccc(F)c2)c(Cl)c1)c1cnccn1"
  Experimental Target: "SN12C renal"
  Val: 45.6
- Smiles Data: "N#Cc1nn(-c2ccccn2)c(N)c1C#N"
  Experimental Target: "SN12C renal"
  Val: 105
- Smiles Data: "O=C(O)CCCN1C(=O)CSC1=S"
  Experimental Target: "SN12C renal"
  Val: 94.9
- Smiles Data: "O=S(=O)(c1ccc(NCSc2nc3ccccc3s2)cc1)c1ccc(NCSc2nc3ccccc3s2)cc1"
  Experimental Target: "SN12C renal"
  Val: 95.5
- Smiles Data: "Cc1ccc(-c2nc(C#N)c(S(=O)(=O)n3nc(C)cc3N)o2)cc1"
  Experimental Target: "SN12C renal"
  Val: 90.1
- Smiles Data: "O=C1NCCS(=O)(=O)/C1=C\\C=C\\c1cccc(C(F)(F)F)c1"
  Experimental Target: "SN12C renal"
  Val: 24.3
- Smiles Data: "Cn1cc(-c2nc(-c3c[nH]c4c(Cl)nccc34)cs2)c2ccccc21"
  Experimental Target: "SN12C renal"
  Val: 94.5
- Smiles Data: "Cn1ncc(CC(=O)O)c1-n1nnc2cc(Cl)ccc2c1=O"
  Experimental Target: "SN12C renal"
  Val: 92.5
- Smiles Data: "COc1cc(OCc2cccc(-c3ccc4c(c3)OCCO4)c2C)cc(OC)c1C=O"
  Experimental Target: "SN12C renal"
  Val: 68.2
- Smiles Data: "Cc1c2ccncc2c(C)c2c1c1ccccc1n2CCCCCC(=O)O"
  Experimental Target: "SN12C renal"
  Val: 94.2
